The values you see were collected from ChEMBL document CHEMBL5042547.

Tested on: MCF7
Test Protocol: Antiproliferative activity against human MCF7 cells assessed as cell viability at irradiation for 30 mins measured after 72 hrs
Assay type: functional, cell-based
Cond: MCF7, light or radiation study
Result Type: IC50 (µM)
Quick reminder: number only, in µM, skip the unit.

Consider the molecule shown here: C[C@]12CC[C@@H]3c4ccc(O)cc4CC[C@H]3[C@@H]1CC[C@@]2(O)C#Cc1ccc(-c2ccc(N(c3ccccc3)c3ccccc3)cc2)c2nsnc12 What is its recorded IC50?
6.1

###

Target Of Assay: Estrogen receptor (Homo sapiens)
Sequence (P03372 whole entry): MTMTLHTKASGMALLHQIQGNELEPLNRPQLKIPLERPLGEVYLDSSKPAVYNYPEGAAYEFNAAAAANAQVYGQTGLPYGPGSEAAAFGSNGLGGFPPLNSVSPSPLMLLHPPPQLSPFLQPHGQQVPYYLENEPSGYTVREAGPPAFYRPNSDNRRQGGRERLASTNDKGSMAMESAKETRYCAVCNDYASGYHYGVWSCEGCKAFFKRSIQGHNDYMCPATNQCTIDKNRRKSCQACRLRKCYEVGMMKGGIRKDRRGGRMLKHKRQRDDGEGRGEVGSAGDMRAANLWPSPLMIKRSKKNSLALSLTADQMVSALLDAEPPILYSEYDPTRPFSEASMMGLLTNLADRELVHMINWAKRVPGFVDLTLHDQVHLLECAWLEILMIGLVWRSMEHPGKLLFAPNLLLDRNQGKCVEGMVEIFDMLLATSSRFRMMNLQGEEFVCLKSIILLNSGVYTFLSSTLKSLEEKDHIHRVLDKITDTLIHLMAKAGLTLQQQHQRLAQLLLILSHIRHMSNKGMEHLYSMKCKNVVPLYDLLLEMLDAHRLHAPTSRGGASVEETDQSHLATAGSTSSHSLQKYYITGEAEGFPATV
Result Type: Ki

Consider the compound shown here: C[C@]12CC[C@@H]3c4ccc(O)cc4CC[C@H]3[C@@H]1CC[C@@]2(O)C#Cc1ccc(-c2ccc(N(c3ccccc3)c3ccccc3)cc2)c2nsnc12 What is its recorded Ki?
72.8 nM
